In this section, each of the variants is paired with its reported FACS-Seq fitted mean (log10).
B1: library; a variant is named by its letters at N, in order (parent)
chain: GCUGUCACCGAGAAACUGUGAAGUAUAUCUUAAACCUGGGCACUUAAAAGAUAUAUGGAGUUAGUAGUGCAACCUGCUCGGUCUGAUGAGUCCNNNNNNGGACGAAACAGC

- Variants of: B1
- measurement_description: FACS-Seq fitted mean relative fluorescence mCherry/BFP with ligand (log10 relative fluorescence); HEK293T; ligand: cyclic di-GMP (c-di-GMP-II aptamer); ligand concentration (+) FACS-Seq: 1 mM; higher = higher reporter protein expression
- experimental_conditions: ligand present: yes
# respond with the number and nothing more

{"record_sequence": "GCUGUCACCGAGAAACUGUGAAGUAUAUCUUAAACCUGGGCACUUAAAAGAUAUAUGGAGUUAGUAGUGCAACCUGCUCGGUCUGAUGAGUCCGGUAUCGGACGAAACAGC [GGUAUC]", "FACS-Seq fitted mean (log10)": -0.193}
{"record_sequence": "GCUGUCACCGAGAAACUGUGAAGUAUAUCUUAAACCUGGGCACUUAAAAGAUAUAUGGAGUUAGUAGUGCAACCUGCUCGGUCUGAUGAGUCCGUCGCGGGACGAAACAGC [GUCGCG]", "FACS-Seq fitted mean (log10)": -0.0454}
{"record_sequence": "GCUGUCACCGAGAAACUGUGAAGUAUAUCUUAAACCUGGGCACUUAAAAGAUAUAUGGAGUUAGUAGUGCAACCUGCUCGGUCUGAUGAGUCCCGUCUUGGACGAAACAGC [CGUCUU]", "FACS-Seq fitted mean (log10)": -0.103}

In the following, a different variant is considered.
Query: Suppose we examine the variant GCUGUCACCGAGAAACUGUGAAGUAUAUCUUAAACCUGGGCACUUAAAAGAUAUAUGGAGUUAGUAGUGCAACCUGCUCGGUCUGAUGAGUCCGCUGUAGGACGAAACAGC [GCUGUA] ; what FACS-Seq fitted mean (log10) value has been reported?
Reply: 0.213

meta.source: the supplement of paper PMC6757056
